Data provenance: patent US20130259876A1

Listed next: entries and their corresponding pKd.
- measured-on: T1, scHLA-B27-mmH (engineered HLA-B*27 ectodomain in-line fusion protein) (human (HLA-B*2705, beta-2 …))
- T1 construct: also called soluble HLA-B*27 fusion protein
- procedure-summary: SPR (Biacore), mAb captured, 25 C, PBS pH 7.2
As a rule, pKd stands for the negative log10 of the concentration, concentration in M.

H4H2490N2 (antibody, V domains shown) VH: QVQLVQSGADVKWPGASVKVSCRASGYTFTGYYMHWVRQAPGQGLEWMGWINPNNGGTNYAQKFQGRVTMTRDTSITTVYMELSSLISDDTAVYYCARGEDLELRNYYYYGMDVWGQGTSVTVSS VL: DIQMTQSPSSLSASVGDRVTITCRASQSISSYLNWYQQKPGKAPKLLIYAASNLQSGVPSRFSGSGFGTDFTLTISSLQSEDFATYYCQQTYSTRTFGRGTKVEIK: 6.62

What value of measured pKd is listed for H4H2534S (antibody, V domains shown) VH: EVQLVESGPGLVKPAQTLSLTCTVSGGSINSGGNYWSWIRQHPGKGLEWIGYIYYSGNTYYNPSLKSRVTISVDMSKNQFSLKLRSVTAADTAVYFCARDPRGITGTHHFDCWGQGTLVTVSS VL: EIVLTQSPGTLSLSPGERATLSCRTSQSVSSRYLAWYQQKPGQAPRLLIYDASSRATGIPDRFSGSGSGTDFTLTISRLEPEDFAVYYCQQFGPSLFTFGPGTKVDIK ? 8.67

What value of measured pKd is listed for H4H2559P (antibody, V domains shown) VH: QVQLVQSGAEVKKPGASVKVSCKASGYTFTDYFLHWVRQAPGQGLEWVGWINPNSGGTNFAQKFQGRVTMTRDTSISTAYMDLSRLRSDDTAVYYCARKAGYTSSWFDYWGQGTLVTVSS VL: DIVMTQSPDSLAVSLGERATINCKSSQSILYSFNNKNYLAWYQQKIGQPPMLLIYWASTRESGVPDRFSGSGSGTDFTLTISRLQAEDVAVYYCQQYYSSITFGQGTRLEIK ? 9.36

What value of measured pKd is listed for H4H2560P (antibody, V domains shown) VH: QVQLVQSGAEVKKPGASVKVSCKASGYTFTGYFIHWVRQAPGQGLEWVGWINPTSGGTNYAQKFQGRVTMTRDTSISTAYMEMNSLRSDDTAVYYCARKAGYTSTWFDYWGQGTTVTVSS VL: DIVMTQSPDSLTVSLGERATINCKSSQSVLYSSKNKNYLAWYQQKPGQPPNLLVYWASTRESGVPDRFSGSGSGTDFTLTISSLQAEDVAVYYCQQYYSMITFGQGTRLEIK ? 8.90
